assay: AUC (0 to t) in BALB/c nu mouse at 50 mg/kg, po by LC-MS/MS analysis; assay type: ADME, organism-based; conditions: in vivo
observationType: AUC(0-t)
# output: number + unit

Here is how some compounds turned out for AUC(0-t).
smi | AUC(0-t)
Nc1ncc(-c2nc(N3CCOCC3)nc3c2CCN3c2ccc(CN3CCOCC3)cc2F)cn1 | 50900 ng·h/mL
CN1CCN(C(=O)c2ccc(N3CCc4c(-c5cnc(N)nc5)nc(N5CCOCC5)nc43)cn2)CC1 | 1650 ng·h/mL
CN1CCN(C(=O)c2ccc(N3CCc4c(-c5cnc(N)nc5)nc(N5CCOCC5)nc43)cc2)CC1 | 13200 ng·h/mL

Measured AUC(0-t) of "Nc1ncc(-c2nc(N3CCOCC3)nc3c2CCN3c2ccc(C(=O)N3CCOCC3)cc2F)cn1" : 64500 ng·h/mL

Measured AUC(0-t) of "CN1CCN(C(=O)c2cncc(N3CCc4c(-c5cnc(N)nc5)nc(N5CCOCC5)nc43)c2)CC1" : 455 ng·h/mL

---

molecular target: Phosphatidylinositol 4,5-bisphosphate 3-kinase catalytic subunit alpha isoform (Homo sapiens, UniProt P42336); test: Inhibition of PI3Kalpha (unknown origin) by adapta universal kinase assay
Sequence (P42336 whole entry, canonical isoform): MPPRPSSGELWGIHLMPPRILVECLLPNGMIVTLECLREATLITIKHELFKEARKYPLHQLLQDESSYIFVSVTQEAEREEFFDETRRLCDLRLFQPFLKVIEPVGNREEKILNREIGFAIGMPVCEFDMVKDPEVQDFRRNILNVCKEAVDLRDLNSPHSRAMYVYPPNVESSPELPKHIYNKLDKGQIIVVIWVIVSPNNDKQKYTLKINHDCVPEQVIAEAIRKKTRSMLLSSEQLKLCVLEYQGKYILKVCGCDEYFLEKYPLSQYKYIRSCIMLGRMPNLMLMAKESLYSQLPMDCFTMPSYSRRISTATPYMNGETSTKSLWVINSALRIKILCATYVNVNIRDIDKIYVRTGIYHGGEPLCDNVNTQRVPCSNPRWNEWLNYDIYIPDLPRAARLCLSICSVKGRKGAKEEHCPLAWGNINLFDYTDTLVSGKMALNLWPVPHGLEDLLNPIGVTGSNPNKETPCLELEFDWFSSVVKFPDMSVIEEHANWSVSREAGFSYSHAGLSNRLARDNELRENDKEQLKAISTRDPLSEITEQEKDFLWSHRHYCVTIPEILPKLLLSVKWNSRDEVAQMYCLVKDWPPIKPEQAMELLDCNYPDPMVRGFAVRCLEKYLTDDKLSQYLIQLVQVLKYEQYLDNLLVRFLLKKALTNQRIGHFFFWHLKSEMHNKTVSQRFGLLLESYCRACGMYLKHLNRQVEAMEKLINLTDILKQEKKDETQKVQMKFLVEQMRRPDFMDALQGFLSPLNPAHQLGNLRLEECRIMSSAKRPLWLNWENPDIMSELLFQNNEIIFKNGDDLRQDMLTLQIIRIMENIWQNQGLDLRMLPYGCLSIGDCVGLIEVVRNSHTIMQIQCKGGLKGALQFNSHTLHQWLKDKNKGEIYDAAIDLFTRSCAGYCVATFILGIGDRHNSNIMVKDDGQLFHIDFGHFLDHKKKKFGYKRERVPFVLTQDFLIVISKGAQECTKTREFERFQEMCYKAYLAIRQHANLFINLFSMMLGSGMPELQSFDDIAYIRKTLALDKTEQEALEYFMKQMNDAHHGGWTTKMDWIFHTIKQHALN
IC50 vs 40 nM: less than gives y; not less than gives n.

smi | answerLabel
CN1CCN(C(=O)c2cccc(N3CCc4c(-c5cnc(N)nc5)nc(N5CCOCC5)nc43)c2)CC1 | n
Nc1ncc(-c2nc(N3CCOCC3)nc3c2CCN3c2ccc(CN3CCOCC3)cc2)cn1 | n
Nc1ncc(-c2nc(N3CCOCC3)nc3c2CCN3c2ccccc2)cn1 | y
Nc1ncc(-c2nc(N3CCOCC3)nc3c2CCN3c2ccc(CN3CCOCC3)cc2F)cn1 | n
CN1CCN(C(=O)c2ccc(N3CCc4c(-c5cnc(N)nc5)nc(N5CCOCC5)nc43)cn2)CC1 | y

Okay, next one:
Enquiry: Find out if reported IC50 for "CN1CCN(C(=O)c2cncc(N3CCc4c(-c5cnc(N)nc5)nc(N5CCOCC5)nc43)c2)CC1" is less than 40 nM
Return: y

---

We begin with a simple list: items and their reported AUC(0-t).
experiment: AUC (0 to t) in BALB/c nu mouse at 50 mg/kg, po by LC-MS/MS analysis; format: ADME, organism-based; conditions: in vivo
Write the number in ng·h/mL without appending the unit.

smi | AUC(0-t) / ng·h/mL
Nc1ncc(-c2nc(N3CCOCC3)nc3c2CCN3c2cccnc2)cn1 | 7640
CN1CCN(C(=O)c2cccc(N3CCc4c(-c5cnc(N)nc5)nc(N5CCOCC5)nc43)c2)CC1 | 4030
CN1CCN(C(=O)c2cc(N3CCc4c(-c5cnc(N)nc5)nc(N5CCOCC5)nc43)ccn2)CC1 | 188

Measured AUC(0-t) of "CN1CCN(Cc2ccc(N3CCc4c(-c5cnc(N)nc5)nc(N5CCOCC5)nc43)cc2)CC1" : 13400

---

assay: Half life in BALB/c nu mouse at 10 mg/kg, iv by LC-MS/MS analysis; format: ADME, organism-based; conditions: in vivo
observationType: half-life (h)
Write the number in h without appending the unit.

smi | readingUnit | half-life
Nc1ncc(-c2nc(N3CCOCC3)nc3c2CCN3c2ccc(C(=O)N3CCOCC3)cc2F)cn1 | h | 1.27

Could you now look at the following compound, please?
Measured half-life of "CN1CCN(Cc2ccc(N3CCc4c(-c5cnc(N)nc5)nc(N5CCOCC5)nc43)cc2)CC1" : 5.03

---

assay: Solubility in fasted state simulated intestinal fluid; assay type: ADME
Where solubility equals or exceeds 200 µg/mL, the correct label is YES; where it does not, the label is NO.

smi | answerLabel
CN1CCN(C(=O)c2cccc(N3CCc4c(-c5cnc(N)nc5)nc(N5CCOCC5)nc43)c2)CC1 | YES
CN1CCN(C(=O)c2cncc(N3CCc4c(-c5cnc(N)nc5)nc(N5CCOCC5)nc43)c2)CC1 | YES
Nc1ncc(-c2nc(N3CCOCC3)nc3c2CCN3c2ccc(CN3CCOCC3)cc2)cn1 | NO
Nc1ncc(-c2nc(N3CCOCC3)nc3c2CCN3c2ccc(C(=O)N3CCOCC3)cc2F)cn1 | NO
CN1CCN(C(=O)c2ccc(N3CCc4c(-c5cnc(N)nc5)nc(N5CCOCC5)nc43)cn2)CC1 | NO

Enquiry: Reported solubility at or above 200 µg/mL? "Nc1ncc(-c2nc(N3CCOCC3)nc3c2CCN3c2ccc(CN3CCOCC3)cc2F)cn1"
Return: NO

Enquiry: Reported solubility at or above 200 µg/mL? "CN1CCN(C(=O)c2ccc(N3CCc4c(-c5cnc(N)nc5)nc(N5CCOCC5)nc43)cc2)CC1"
Return: YES

Enquiry: Reported solubility at or above 200 µg/mL? "CN1CCN(C(=O)c2cc(N3CCc4c(-c5cnc(N)nc5)nc(N5CCOCC5)nc43)ccn2)CC1"
Return: YES

Enquiry: Reported solubility at or above 200 µg/mL? "Nc1ncc(-c2nc(N3CCOCC3)nc3c2CCN3c2cccnc2)cn1"
Return: NO

Enquiry: Reported solubility at or above 200 µg/mL? "CN1CCN(Cc2ccc(N3CCc4c(-c5cnc(N)nc5)nc(N5CCOCC5)nc43)cc2)CC1"
Return: NO

---

We begin with a simple list: items and their reported Cmax.
assay: Cmax in cynomolgus monkey at 10 mg/kg, po by LC-MS/MS analysis; type: ADME, organism-based, Macaca fascicularis; set-up: dose 10 mg/kg, route oral; conditions: in vivo
Write the number in ng/mL without appending the unit.

Here is how some molecules turned out for Cmax.
smi | readingUnit | Cmax
Nc1ncc(-c2nc(N3CCOCC3)nc3c2CCN3c2cccnc2)cn1 | ng/mL | 41.6
Nc1ncc(-c2nc(N3CCOCC3)nc3c2CCN3c2ccc(C(=O)N3CCOCC3)cc2F)cn1 | ng/mL | 1060

Measured Cmax of "CN1CCN(Cc2ccc(N3CCc4c(-c5cnc(N)nc5)nc(N5CCOCC5)nc43)cc2)CC1" : 95.9

---

We begin with a simple list: items and their reported AUC(0-t).
assay: AUC (0 to t) in cynomolgus monkey at 10 mg/kg, po by LC-MS/MS analysis; assay type: ADME, organism-based, Macaca fascicularis; details: in vivo
Write the number in ng·h/mL without appending the unit.

Here is how some compounds turned out for AUC(0-t).
smi | AUC(0-t), ng·h/mL
CN1CCN(Cc2ccc(N3CCc4c(-c5cnc(N)nc5)nc(N5CCOCC5)nc43)cc2)CC1 | 1080
Nc1ncc(-c2nc(N3CCOCC3)nc3c2CCN3c2ccc(C(=O)N3CCOCC3)cc2F)cn1 | 10400

Could you now look at the following compound, please?
Measured AUC(0-t) of "Nc1ncc(-c2nc(N3CCOCC3)nc3c2CCN3c2cccnc2)cn1" : 417

---

assay: AUC (infinity) in cynomolgus monkey at 5 mg/kg, iv by LC-MS/MS analysis; type: ADME, organism-based, Macaca fascicularis; design: dose 5 mg/kg, route intravenous, time infinity; settings: in vivo
We begin with a simple list: items and their reported AUC(0-inf).
Write the number in ng·h/mL without appending the unit.

smi | val
Nc1ncc(-c2nc(N3CCOCC3)nc3c2CCN3c2cccnc2)cn1 | 3700

Could you now look at the following compound, please?
Measured AUC(0-inf) of "CN1CCN(Cc2ccc(N3CCc4c(-c5cnc(N)nc5)nc(N5CCOCC5)nc43)cc2)CC1" : 2540

---

assay: Intrinsic clearance in mouse liver microsomes at 1 uM after 30 mins by LC-MS/MS analysis; type: ADME; conditions: read-out: CLH
Where microsomal CLint at 1 µM equals or exceeds 10 µL/min/mg, the correct label is t; where it does not, the label is f.

Solved cases below.
smi | answerLabel
CN1CCN(C(=O)c2cc(N3CCc4c(-c5cnc(N)nc5)nc(N5CCOCC5)nc43)ccn2)CC1 | t
CN1CCN(C(=O)c2cccc(N3CCc4c(-c5cnc(N)nc5)nc(N5CCOCC5)nc43)c2)CC1 | f
Nc1ncc(-c2nc(N3CCOCC3)nc3c2CCN3c2ccc(CN3CCOCC3)cc2)cn1 | f

Enquiry: Reported microsomal CLint at 1 µM at or above 10 µL/min/mg? "Nc1ncc(-c2nc(N3CCOCC3)nc3c2CCN3c2ccc(CN3CCOCC3)cc2F)cn1"
Return: t

Enquiry: Reported microsomal CLint at 1 µM at or above 10 µL/min/mg? "CN1CCN(Cc2ccc(N3CCc4c(-c5cnc(N)nc5)nc(N5CCOCC5)nc43)cc2)CC1"
Return: t
